# Test system: TK-10
# method_description: NCI tumour cell line growth inhibition, 48 h
Calls of active or inactive are those of the source. Rule as the data show it: active = GI50 up to about 1.1 µM and inactive = higher.
assay_readout: GI50

Known GI50 results, listed for orientation:
compound	result
CC1SC(=O)SC1C (stereo unspecified)	> 100 µM (inactive)
Cc1nc(Nc2ccccc2)sc1C(=O)NNC(N)=O	> 100 µM (inactive)
OC[C@@H]1CC#C/C=C\C#CC[C@@H]1CO	> 100 µM (inactive)
O=C(O)CCc1cccc2c1oc1c(CCC(=O)O)cccc12	> 100 µM (inactive)
Cc1ccc(S(=O)(=O)N(CCNC(=O)c2cccc(O)c2O)c2cc3c4c(c2)Oc2cccc5c2C4(C)c2c(cccc2O3)O5)cc1	> 100 µM (inactive)

// switching to the query compound
Would you kindly share the measured GI50 for Cn1c(=O)nc2n(-c3ccc(Br)cc3)c3ccccc3nc-2c1=O ?
8.93 µM (inactive)

====

# Tested on: RXF 393
# method_description: NCI tumour cell line growth inhibition, 48 h
Activity calls are given as the source filed them. Rule as the data show it: active = GI50 up to about 1.1 µM and inactive = higher.
The following compounds are shown together with reported GI50 values.

Known GI50 results, listed for orientation:
compound	GI50
CC1(C(=O)O)CCOc2ccccc21 (stereo unspecified)	> 100 µM (inactive)
COc1ccc(O)c(/C=N/CCC/N=C/c2cc(OC)ccc2O)c1	25.6 µM (inactive)
COc1cc2c(c3nc4ccccc4nc13)-c1ccc(SC)c(=O)cc1[C@@H](NC(C)=O)CC2	> 100 µM (inactive)
O=C1NC(=O)C2=C1CCC2O (stereo unspecified)	> 100 µM (inactive)
C/C(=N\c1cc(Cl)cc(Cl)c1)c1ccncc1	> 100 µM (inactive)
NC(=S)Nc1nc(=S)[nH]c2c1SC1=N/C(=C\c3ccco3)C(=O)N12	> 100 µM (inactive)

// switching to the query compound
Test system RXF 393; read-out GI50; what value for Cc1c(-c2ccc(-c3ccccc3F)cc2)nc2ccc(F)cc2c1C(=O)O [BREQUINAR SODIUM] ?
11.7 µM (inactive)

====

# Tested on: DMS-114
# method_description: NCI tumour cell line growth inhibition, 48 h
Calls of active or inactive are those of the source. Cut-off read from the data, not from the text of the source: active = GI50 up to about 1.1 µM and inactive = higher.
Use one of these outcomes when replying: active, inactive

molecule	label
CN(C)c1ccc(/C=C/C(=O)O)cc1	inactive
CCCCCCCC/C=C1\CCC(CN2CCOCC2)C1=O (stereo not drawn)	inactive
COC1=C(N)C(=O)c2nc(-c3nc(C(=O)O)c(C)c(-c4ccc(OC)c(OC)c4O)c3N)ccc2C1=O [STREPTONIGRIN]	active
Cc1c2cnccc2c(C)c2c1c1ccccc1n2CCCN	active

What classification did CC(C)N(C(=O)C12C3C4C5(C#N)C3C1(C#N)C5C42C#N)C(C)C (stereo not drawn) end up with in this test?
inactive

What classification did CC(O)/C=C/C(CCC(C)CO)C(C)C (stereo not drawn) end up with in this test?
inactive

What classification did COc1cc2c(c(OC)c1OC)-c1ccc(SC)c(=O)cc1[C@@H](NC(=O)c1ccc(C#N)cc1)CC2 end up with in this test?
active

What classification did Cn1c(=O)c2nc(-c3ccc(Cl)cc3)oc2n(C)c1=O end up with in this test?
inactive

====

# System: HT-29
# method_description: NCI tumour cell line growth inhibition, 48 h
Calls of active or inactive are those of the source. Rule as the data show it: active = GI50 up to about 1.1 µM and inactive = higher.
Use one of these outcomes when replying: TRUE = active, FALSE = inactive

compound	label
CN(C)c1ccc(/C=C/C(=O)O)cc1	FALSE

What classification did O=C(CCc1nnc(S)[nH]1)Nc1cccc(C(F)(F)F)c1 end up with in this test?
FALSE

What classification did COc1ccc(NC(=O)C2C(=O)N(c3ccc(OC)cc3)C(=O)/C2=N\N)cc1 (stereo unspecified) end up with in this test?
FALSE

What classification did CN(C)c1ccc(/C=C2\N=C(N/N=C/c3ccccc3O)NC2=O)cc1 end up with in this test?
FALSE

What classification did Cc1cc(C)n(C2OC(CO)C(O)C(O)C2O)c(=S)c1C#N (stereo unspecified) end up with in this test?
FALSE
